The reported measurements were obtained from PubChem BioAssay AID1626.

system: M. tuberculosis H37Rv growth inhibition; test: M. tuberculosis H37Rv growth inhibitors, H37Rv strain (AID 1626)
pIC50: −log10 of the molar value.
Lab note: anything with pIC50 at or over 5 counts as criterion met; the rest go in criterion not met.

Worked examples follow.
1) O=C(CCN1C(=O)C2CCCCC2C1=O)Nc1nc(-c2ccc(F)c(F)c2)cs1 (configuration not stated) : criterion not met
2) O=C(CSCC(=O)N1CCCCC1)Nc1nc(-c2ccc(Cl)s2)cs1 : criterion not met
3) O=C(O)c1cn(-c2ccc(N3CCCC3)c(F)c2)c2c(F)c(F)c(F)cc2c1=O : criterion met
4) Cc1nc(N2CCN(Cc3ccc4c(c3)OCO4)CC2)c2cc(-c3ccccc3)sc2n1 : criterion met
5) COc1cc(CNC(C)c2ccccc2)cc(Cl)c1OCC(=O)Nc1ccccc1 (configuration not stated) : criterion met
6) C/C=C/c1ccc(OCC(=O)OCc2csc(Nc3ccc(C)cc3)n2)c(OC)c1 : criterion met

q: Can CCCOC(=O)c1ccc(NC(=O)C2C3C=CC(O3)C2C(=O)O)cc1 (configuration not stated) be said to have pIC50 at or above 5?
a: criterion not met

q: Can CCn1c(NC(=O)c2nn(C)cc2Br)nc2ccccc21 be said to have pIC50 at or above 5?
a: criterion met

----------
Below, each entry is listed with its recorded pIC50.
test system: M. tuberculosis H37Rv growth inhibition; experiment: M. tuberculosis H37Rv growth inhibitors, H37Rv strain (AID 1626)
pIC50: −log10 of the molar value.

1) Cc1ccc(Oc2nc(CN3CCOCC3)nc3sc4c(c23)CCC(C)C4)cc1 (stereo not drawn) : 4.77

Next up:
q: Which pIC50 value belongs to O=C(COc1ccc(Nc2ccccc2)cc1)OCC(=O)N1CCCCC1 ?
a: 4.71

----------
tested on: M. tuberculosis H37Rv growth inhibition; experiment: M. tuberculosis H37Rv growth inhibitors, H37Rv strain (AID 1626)
pIC50: −log10 of the molar value.
Lab note: anything with pIC50 at or over 5 counts as yes (1); the rest go in no (0).

1. CCC(=O)Nc1nc2ccccc2n1Cc1ccc(C)cc1 : yes (1)

q: Can CC(C)c1ccc(Nc2nnc(SCC(=O)Nc3ncc(S(=O)(=O)c4ccc([N+](=O)[O-])cc4)s3)s2)cc1 be said to have pIC50 at or above 5?
a: yes (1)

q: Can O=C(Nc1nnc(-c2ccc3c(c2)OCCO3)o1)c1ccc(Cc2ccccc2)cc1 be said to have pIC50 at or above 5?
a: yes (1)

q: Can O=C(NC1CCCCCCC1)c1ccccc1-c1ccccc1 be said to have pIC50 at or above 5?
a: no (0)

q: Can O=C(CNC(=O)/C(=C/c1ccccc1)NC(=O)c1ccc(Br)cc1)OCc1ccccc1 be said to have pIC50 at or above 5?
a: yes (1)

q: Can CCc1nc(N2CCCC(C)C2)c2oc3ccccc3c2n1 (stereo not given) be said to have pIC50 at or above 5?
a: no (0)

q: Can O=C(Nc1nnc(-c2ccc(Cl)cc2)o1)C1=COCCO1 be said to have pIC50 at or above 5?
a: yes (1)

q: Can O=C1c2cccc3c(N4CCOCC4)c([N+](=O)[O-])cc(c23)C(=O)N1c1cccc2ccccc12 be said to have pIC50 at or above 5?
a: yes (1)
